Value source: patent US10654866B2

Target: UniProt:P03372
Sequence (P03372 whole entry): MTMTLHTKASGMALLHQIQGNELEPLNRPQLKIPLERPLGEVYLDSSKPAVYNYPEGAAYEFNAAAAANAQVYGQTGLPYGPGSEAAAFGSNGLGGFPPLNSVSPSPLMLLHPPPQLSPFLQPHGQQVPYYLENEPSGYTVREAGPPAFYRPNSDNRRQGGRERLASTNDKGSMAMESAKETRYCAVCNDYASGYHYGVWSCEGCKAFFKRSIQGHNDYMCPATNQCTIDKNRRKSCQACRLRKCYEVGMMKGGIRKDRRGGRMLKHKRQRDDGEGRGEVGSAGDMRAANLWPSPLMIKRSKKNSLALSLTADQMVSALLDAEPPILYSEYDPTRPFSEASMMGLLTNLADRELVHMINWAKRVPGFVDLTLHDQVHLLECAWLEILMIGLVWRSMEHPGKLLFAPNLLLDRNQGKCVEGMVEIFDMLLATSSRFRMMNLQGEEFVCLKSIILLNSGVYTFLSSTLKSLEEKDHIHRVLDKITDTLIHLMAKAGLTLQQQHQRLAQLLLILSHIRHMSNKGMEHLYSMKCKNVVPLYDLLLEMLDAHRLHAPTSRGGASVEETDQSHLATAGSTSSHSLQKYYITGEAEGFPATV
Experiment: PRα inhibition (ERα functional antagonism) cell assay in MCF7 cells
Settings: MCF7 cells pretreated with 0.47 nM estradiol, % PRα positive cells; read-out: Relative IC50
Excerpt: The purpose of the following PRα inhibition (ERα functional antagonism) cell assay is to determine the antagonistic activity of a test compound against the ERα receptor. An antagonist in this assay is expected to block the function of the ERα receptor. […]
pIC50: −log10 of the molar value.
metric_name: pIC50

compound="Cc1ccc2c(c1)OC(c1ccc(OCCN3CC(CF)C3)cc1)c1c-2cnc2cc(O)ccc12 (racemic)" observed=6.95

A: Oc1ccc2c3c(cnc2c1)-c1cccc(F)c1OC3c1ccc(OCCN2CC(CF)C2)cc1 (racemic) [Example 6]
B: Oc1ccc2c3c(cnc2c1)-c1cccc(Cl)c1OC3c1ccc(OCCN2CC(CF)C2)cc1 (single isomer, unassigned) [Example 4B]
Req: Decide: A or B , by lowest recorded pIC50. API: response body contains the label of the selected item.
Resp: A

I: Cc1cccc2c1OC(c1ccc(OCCN3CC(CF)C3)cc1)c1c-2cnc2cc(O)ccc12 (racemic) [Example 8]
II: Oc1ccc2c3c(cnc2c1)-c1cccc(F)c1OC3c1ccc(OCCN2CC(CF)C2)cc1 (single isomer, unassigned) [Example 6B]
Req: Given the listed records, identify the one among I and II with higher pIC50. Choose, then provide that item's label.
Resp: II

A: Oc1ccc2c3c(cnc2c1)-c1cccc(C(F)(F)F)c1OC3c1ccc(OCCN2CC(CF)C2)cc1 (single isomer, unassigned) [Example 2A]
B: Cc1cccc2c1OC(c1ccc(OCCN3CC(CF)C3)cc1)c1c-2cnc2cc(O)ccc12 (single isomer, unassigned) [Example 8B]
C: Oc1ccc2c3c(cnc2c1)-c1ccc(F)cc1OC3c1ccc(OCCN2CC(CF)C2)cc1 (single isomer, unassigned) [Example 5A]
D: Oc1ccc2c3c(cnc2c1)-c1cccc(F)c1OC3c1ccc(OCCN2CC(CF)C2)cc1 (single isomer, unassigned) [Example 6A]
Req: List from greatest to least pIC50. Would you mind listing the labels in the order asked for?
Resp: B, A, D, C
(B: 7.31, A: 6.92, D: 6.60, C: 6.22)

1: Oc1ccc2c3c(cnc2c1)-c1cccc(Cl)c1OC3c1ccc(OCCN2CC(CF)C2)cc1 (racemic) [Example 4]
2: Cc1cccc2c1OC(c1ccc(OCCN3CC(CF)C3)cc1)c1c-2cnc2cc(O)ccc12 (single isomer, unassigned) [Example 8A]
Req: Between the entries labelled 1 and 2 , which has a larger pIC50 value on record? Write down the label of the entry you select.
Resp: 1
